All values here come from patent US11001591B2.

Recorded pIC50 by entry
targetDesc: TRAF6-UBC13 interaction (Homo sapiens)
Construct: RING-Zincfinger1 (RZ1) domain (residues 50-159) of TRAF6 wildtype
Sequence (Q9Y4K3 50-159): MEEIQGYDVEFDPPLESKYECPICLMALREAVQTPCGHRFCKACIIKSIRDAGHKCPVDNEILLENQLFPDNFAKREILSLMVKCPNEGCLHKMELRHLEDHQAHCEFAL
testDescription: ALPHAScreen TRAF6WTStrepII-Ubc13FH interaction assay
measurementConditions: inhibition of TRAF6-UBC13 interaction
pIC50: −log10 of the molar value.

Recorded results for 4 compounds are shown here.
| compound | result |
| --- | --- |
| Cc1nn(-c2ccc3nnc(C)n3n2)c(C)c1CCC(=O)N1CCN(Cc2cccc(Cl)c2)CC1 [Compound 11] | ≥ 5.00 |
| Cc1nn(-c2ccc3nnc(C)n3n2)c(C)c1CCC(=O)N1CCC(Cc2ccccc2)CC1 [Compound 3] | ≥ 5.52 |
| COc1cccc(N2CCN(C(=O)CCc3c(C)nn(-c4ccc5nnc(C)n5n4)c3C)CC2)c1 [Compound 61] | ≥ 5.52 |
| Cc1nn(-c2ccc3nncn3n2)c(C)c1CCC(=O)N1CCN(c2ccc(F)cc2)CC1 [Compound 5] | ≥ 5.00 |

For the next question, use this compound.
INPUT: What value of measured pIC50 is listed for Cc1nn(-c2ccc3nnc(C)n3n2)c(C)c1CCC(=O)N1CCCC1 [Compound 6] ?
OUTPUT: ≥ 5.00
